test system: 926638-142-R-J1-PDC complex spheroid viability; assay: Anticancer human tumor 926638-142-R-J1-PDC patient-derived endometrial carcinoma cell line growth inhibition [POLQ]; conditions: second compound 0.316 µM; first compound 0.0316 µM; active compounds read low
Here, each record is paired with measured viability, T/C data.

MOLECULE	viability, T/C / %
COc1cc(C2c3cc4c(cc3C(OC3OC5COC(C)OC5C(O)C3O)C3COC(=O)C23)OCO4)cc(OC)c1O (stereo unspecified) + Cc1cccc(N(C)C(=O)C2C(O)CCN2c2nc(C)cc(C(F)(F)F)c2C#N)c1	95.5
COc1cc2cc(C(=O)CCC(=O)O)sc2cc1OC + Nc1ccc(C#CCN(C(=O)Cc2ncc(C(F)(F)F)cc2C(F)(F)F)c2ccc(F)cc2)nn1	110
O=C(c1cc(Cc2n[nH]c(=O)c3ccccc23)ccc1F)N1CCN(C(=O)C2CC2)CC1 + Cc1cccc(N(C)C(=O)C2C(O)CCN2c2nc(C)cc(C(F)(F)F)c2C#N)c1	101
COc1cccc(OCCCN)c1-c1cc(Nc2cnc(C#N)cn2)n[nH]1 + Nc1ccc(C#CCN(C(=O)Cc2ncc(C(F)(F)F)cc2C(F)(F)F)c2ccc(F)cc2)nn1	60.4
COc1cccc(OCCCN)c1-c1cc(Nc2cnc(C#N)cn2)n[nH]1 + Cc1cccc(N(C)C(=O)C2C(O)CCN2c2nc(C)cc(C(F)(F)F)c2C#N)c1	59.7
C=CCn1c(=O)c2cnc(Nc3ccc(N4CCN(C)CC4)cc3)nc2n1-c1cccc(C(C)(C)O)n1 + Cc1cccc(N(C)C(=O)C2C(O)CCN2c2nc(C)cc(C(F)(F)F)c2C#N)c1	71.6
O=C(c1cc(Cc2n[nH]c(=O)c3ccccc23)ccc1F)N1CCN(C(=O)C2CC2)CC1 + COC1C(OC(N)=O)C(O)C(Oc2ccc3c(O)c(NC(=O)c4ccc(O)c(CC=C(C)C)c4)c(=O)oc3c2C)OC1(C)C	92.3
Cn1ncnc1[C@H]1c2n[nH]c(=O)c3cc(F)cc(c23)N[C@@H]1c1ccc(F)cc1 + COC1C(OC(N)=O)C(O)C(Oc2ccc3c(O)c(NC(=O)c4ccc(O)c(CC=C(C)C)c4)c(=O)oc3c2C)OC1(C)C	69.7
CC1COCCN1c1cc(-c2ccnn2C)c2ccnc(-c3ccn[nH]3)c2n1 (stereo unspecified) + Cc1cccc(N(C)C(=O)C2C(O)CCN2c2nc(C)cc(C(F)(F)F)c2C#N)c1	106
CC1COCCN1c1cc(C2(S(C)(=N)=O)CC2)nc(-c2ccnc3[nH]ccc23)n1 (stereo unspecified) + Nc1ccc(C#CCN(C(=O)Cc2ncc(C(F)(F)F)cc2C(F)(F)F)c2ccc(F)cc2)nn1	99.4
O=c1[nH]cc(F)c(=O)[nH]1 + Nc1ccc(C#CCN(C(=O)Cc2ncc(C(F)(F)F)cc2C(F)(F)F)c2ccc(F)cc2)nn1	85.5

###

Here, each record is paired with measured viability, T/C data.
system: 926638-142-R-J1-PDC complex spheroid viability; test: Anticancer human tumor 926638-142-R-J1-PDC cell line growth inhibition [POLQ]; conditions: second compound 10 µM; first compound 0.316 µM; active compounds read low;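 note: spheroids exposed to drugs for one week before readout; percent viability relative to DMSO vehicle control wells set as 100%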

COMPOUND	READOUT_UNIT	viability, T/C
CCCS(=O)(=O)Nc1ccc(F)c(C(=O)c2c[nH]c3ncc(-c4ccc(Cl)cc4)cc23)c1F + Cc1cccc(N(C)C(=O)C2C(O)CCN2c2nc(C)cc(C(F)(F)F)c2C#N)c1	%	77.1
CCc1cc2c(N3CCc4c(cc(Cn5ccnc5)cc4-c4cn(C)nc4C(F)(F)F)C3=O)cc(C)nc2c(OC)n1 + Nc1ccc(C#CCN(C(=O)Cc2ncc(C(F)(F)F)cc2C(F)(F)F)c2ccc(F)cc2)nn1	%	53.8
CC1COCCN1c1cc(C2(O)CC3CCC(C2)O3)c2cnn(-c3ccn[nH]3)c2n1 (stereo not given) + COC1C(OC(N)=O)C(O)C(Oc2ccc3c(O)c(NC(=O)c4ccc(O)c(CC=C(C)C)c4)c(=O)oc3c2C)OC1(C)C	%	31.1
COc1cc(C2c3cc4c(cc3C(OC3OC5COC(C)OC5C(O)C3O)C3COC(=O)C23)OCO4)cc(OC)c1O (stereo not given) + Cc1cccc(N(C)C(=O)C2C(O)CCN2c2nc(C)cc(C(F)(F)F)c2C#N)c1	%	73.6
O=C(c1cc(Cc2n[nH]c(=O)c3ccccc23)ccc1F)N1CCN(C(=O)C2CC2)CC1 + COC1C(OC(N)=O)C(O)C(Oc2ccc3c(O)c(NC(=O)c4ccc(O)c(CC=C(C)C)c4)c(=O)oc3c2C)OC1(C)C	%	92.2
Nc1ccn(C2OC(CO)C(O)C2(F)F)c(=O)n1 (stereo not given) + Nc1ccc(C#CCN(C(=O)Cc2ncc(C(F)(F)F)cc2C(F)(F)F)c2ccc(F)cc2)nn1	%	66.3
O=C(Nc1ccc(O)c(NS(=O)(=O)c2ccc(F)cc2)c1)c1ccc(-c2ccccc2)cc1 + COC1C(OC(N)=O)C(O)C(Oc2ccc3c(O)c(NC(=O)c4ccc(O)c(CC=C(C)C)c4)c(=O)oc3c2C)OC1(C)C	%	93.8
CCc1cc2c(N3CCc4c(cc(Cn5ccnc5)cc4-c4cn(C)nc4C(F)(F)F)C3=O)cc(C)nc2c(OC)n1 + COC1C(OC(N)=O)C(O)C(Oc2ccc3c(O)c(NC(=O)c4ccc(O)c(CC=C(C)C)c4)c(=O)oc3c2C)OC1(C)C	%	62.3
CC1COCCN1c1cc(C2(O)CC3CCC(C2)O3)c2cnn(-c3ccn[nH]3)c2n1 (stereo not given) + Nc1ccc(C#CCN(C(=O)Cc2ncc(C(F)(F)F)cc2C(F)(F)F)c2ccc(F)cc2)nn1	%	29.3
CC(C)n1c(=O)n(C)c2cnc3cc(F)c(-c4ccc(OCCCN5CCCCC5)nc4)cc3c21 + Nc1ccc(C#CCN(C(=O)Cc2ncc(C(F)(F)F)cc2C(F)(F)F)c2ccc(F)cc2)nn1	%	97.2

Reference for the values: PubChem BioAssay AID1963826
